B1: DLC1 (parent)
chain: AIQGISEKEKAEIEAKEACDWLRA

- Variants of: B1
- TEST_DETAILS: protein stability index of a GFP-peptide fusion (GPS, HEK-293T) (PSI 1-6); higher = more stable;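 also: lentivirally expressed fusions sorted by FACS into six bins by GFP to DsRed ratio, PSI derived from sequencing read proportions per bin multiplied by bin number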
- COND: c terminus: a fixed tail appended
Reported protein stability index is given for each of the following variants.

# VAR, protein stability index
rows = [
    ("A18N", 4.42),
    ("I2W", 4.37),
    ("C19I", 4.09),
    ("R23K", 4.62),
    ("I13G", 5.08),
    ("D20N", 4.3),
    ("E12A", 3.89),
    ("Q3K", 4.27),
    ("L22N", 5.24),
    ("A18G", 4.35),
    ("E9M", 3.22),
    ("A24C", 4.55),
    ("I5F", 4.18),
    ("K10D", 4.47),
    ("E14M", 3.59),
    ("K8T", 5.01),
    ("W21R", 5.4),
    ("C19W", 4.45),
    ("I13C", 5.09),
    ("K8I", 4.5),
    ("C19Y", 4.64),
    ("W21S", 5.05),
    ("I2S", 4.99),
    ("I2L", 4.91),
    ("K16M", 4.24),
    ("A15L", 4),
    ("R23I", 4.68),
    ("L22M", 4.73),
    ("D20K", 4.05),
    ("E7H", 3.86),
    ("I5Y", 4.45),
    ("E9H", 4.71),
    ("I5T", 4.87),
    ("E7K", 4.3),
    ("I2M", 4.94),
    ("W21G", 5.35),
    ("E14V", 3.24),
    ("A11N", 4.5),
    ("E9N", 4.5),
    ("D20T", 4.12),
    ("W21N", 5.1),
    ("K10F", 3.71),
    ("E12L", 3.72),
    ("S6G", 4.39),
    ("C19K", 4.63),
    ("E14P", 4.12),
]
